# Tested on: NCI-H1975
# Method: relative viability (nuclei count vs DMSO), 5 days (fraction); higher = more cells survive
# Measurement Setup: first compound 2 µM
Threshold-based label: relative viability under 0.5 gives 1 (yes), relative viability not under 0.5 gives 0 (no).

Example entries and their recorded answers appear below.
CN1CCN(CCOc2cc(OC3CCOCC3)c3c(Nc4c(Cl)ccc5c4OCO5)ncnc3c2)CC1 [Saracatinib] + CCNC(=O)c1noc(-c2cc(C(C)C)c(O)cc2O)c1-c1ccc(CN2CCOCC2)cc1 [Luminespib] (partner 0.01 µM) ... 1 (yes)
CN1CCN(CCOc2cc(OC3CCOCC3)c3c(Nc4c(Cl)ccc5c4OCO5)ncnc3c2)CC1 [Saracatinib] + CS(=O)(=O)CCNCc1ccc(-c2ccc3ncnc(Nc4ccc(OCc5cccc(F)c5)c(Cl)c4)c3c2)o1 [Lapatinib] (partner 2 µM) ... 0 (no)
CN1CCN(CCOc2cc(OC3CCOCC3)c3c(Nc4c(Cl)ccc5c4OCO5)ncnc3c2)CC1 [Saracatinib] + C[C@]1(O)C[C@@H](c2nc(-c3ccc4ccc(-c5ccccc5)nc4c3)c3c(N)nccn32)C1 [Linsitinib] (partner 1 µM) ... 1 (yes)

Decide: relative viability of CN1CCN(CCOc2cc(OC3CCOCC3)c3c(Nc4c(Cl)ccc5c4OCO5)ncnc3c2)CC1 [Saracatinib] + CC(=O)Nc1cccc(-n2c(=O)n(C3CC3)c(=O)c3c(Nc4ccc(I)cc4F)n(C)c(=O)c(C)c32)c1 [Trametinib] (partner 0.02 µM) strictly below 0.5?
1 (yes)

Decide: relative viability of CN1CCN(CCOc2cc(OC3CCOCC3)c3c(Nc4c(Cl)ccc5c4OCO5)ncnc3c2)CC1 [Saracatinib] + CC(=O)c1c(C)c2cnc(Nc3ccc(N4CCNCC4)cn3)nc2n(C2CCCC2)c1=O [Palbociclib] (partner 0.5 µM) strictly below 0.5?
1 (yes)

Decide: relative viability of Cc1csc(=NC2CCCCC2)n1/N=C/c1ccc(O)c(O)c1O [MIM1] + COc1cccc2cc(-c3nc([C@H]4CC[C@H](C(=O)O)CC4)n4ncnc(N)c34)[nH]c12 [OSI-027] (partner 0.5 µM) strictly below 0.5?
0 (no)

Decide: relative viability of CN1CCN(CCOc2cc(OC3CCOCC3)c3c(Nc4c(Cl)ccc5c4OCO5)ncnc3c2)CC1 [Saracatinib] + Cc1nc(NC(=O)N2CCC[C@H]2C(N)=O)sc1-c1ccnc(C(C)(C)C(F)(F)F)c1 [Alpelisib] (partner 2 µM) strictly below 0.5?
1 (yes)

Decide: relative viability of Cc1csc(=NC2CCCCC2)n1/N=C/c1ccc(O)c(O)c1O [MIM1] + Cc1nc(NC(=O)N2CCC[C@H]2C(N)=O)sc1-c1ccnc(C(C)(C)C(F)(F)F)c1 [Alpelisib] (partner 2 µM) strictly below 0.5?
0 (no)

Decide: relative viability of Cc1csc(=NC2CCCCC2)n1/N=C/c1ccc(O)c(O)c1O [MIM1] + Nc1nc2[nH]cc(CCc3ccc(C(=O)N[C@@H](CCC(=O)O)C(=O)O)cc3)c2c(=O)[nH]1 [Pemetrexed] (partner 0.2 µM) strictly below 0.5?
1 (yes)

---

# Test system: LC-2-ad
# Method: relative viability (nuclei count vs DMSO), 5 days (fraction); higher = more cells survive
# Measurement Setup: first compound 0.03162 µM
Some compounds, each annotated with its measured relative viability.
Just the number, please, no unit after it.

Cc1cn(-c2cc(NC(=O)c3ccc(C)c(Nc4nccc(-c5cccnc5)n4)c3)cc(C(F)(F)F)c2)cn1 [Nilotinib] + COc1cc2c(Oc3ccc(NC(=O)C4(C(=O)Nc5ccc(F)cc5)CC4)cc3F)ccnc2cc1OCCCN1CCOCC1 [Foretinib] (partner 0.25 µM) ... 0.827

Consider the record given below.
Per the records, this compound ( Cc1cn(-c2cc(NC(=O)c3ccc(C)c(Nc4nccc(-c5cccnc5)n4)c3)cc(C(F)(F)F)c2)cn1 [Nilotinib] + O=C(c1cc(Cc2n[nH]c(=O)c3ccccc23)ccc1F)N1CCN(C(=O)C2CC2)CC1 [Olaparib] (partner 8 µM) ) has relative viability equal to 0.874

---

# Test system: NCI-H3122
# Method: relative viability (nuclei count vs DMSO), 5 days (fraction); higher = more cells survive
# Measurement Setup: first compound 8 µM
Threshold-based label: relative viability under 0.7 gives true, relative viability not under 0.7 gives false.

Decide: relative viability of Nc1cccc2c1CN(C1CCC(=O)NC1=O)C2=O (stereo not drawn) [Lenalidomide] + O=C(CCCCCCC(=O)Nc1ccccc1)NO [Vorinostat] (partner 1 µM) strictly below 0.7?
false

Decide: relative viability of Nc1cccc2c1CN(C1CCC(=O)NC1=O)C2=O (stereo not drawn) [Lenalidomide] + Cc1nc(Nc2ncc(C(=O)Nc3c(C)cccc3Cl)s2)cc(N2CCN(CCO)CC2)n1 [Dasatinib] (partner 0.075 µM) strictly below 0.7?
true

Decide: relative viability of Nc1cccc2c1CN(C1CCC(=O)NC1=O)C2=O (stereo not drawn) [Lenalidomide] + CC1(C)CCC(c2ccc(Cl)cc2)=C(CN2CCN(c3ccc(C(=O)NS(=O)(=O)c4ccc(N[C@H](CCN5CCOCC5)CSc5ccccc5)c(S(=O)(=O)C(F)(F)F)c4)cc3)CC2)C1 [Navitoclax] (partner 0.5 µM) strictly below 0.7?
false

Decide: relative viability of Nc1cccc2c1CN(C1CCC(=O)NC1=O)C2=O (stereo not drawn) [Lenalidomide] + Cc1nc(NC(=O)N2CCC[C@H]2C(N)=O)sc1-c1ccnc(C(C)(C)C(F)(F)F)c1 [Alpelisib] (partner 2 µM) strictly below 0.7?
true

Decide: relative viability of Nc1cccc2c1CN(C1CCC(=O)NC1=O)C2=O (stereo not drawn) [Lenalidomide] + CCNC(=O)c1noc(-c2cc(C(C)C)c(O)cc2O)c1-c1ccc(CN2CCOCC2)cc1 [Luminespib] (partner 0.01 µM) strictly below 0.7?
true

---

# System: LCLC-97TM1
# Method: relative viability (nuclei count vs DMSO), 5 days (fraction); higher = more cells survive
# Measurement Setup: first compound 0.03162 µM
Property: relative viability
Just the number, please, no unit after it.

The cases that follow already have their relative viability on record.
Cc1cn(-c2cc(NC(=O)c3ccc(C)c(Nc4nccc(-c5cccnc5)n4)c3)cc(C(F)(F)F)c2)cn1 [Nilotinib] + Cc1cc(Nc2cc(N3CCN(C)CC3)nc(Sc3ccc(NC(=O)C4CC4)cc3)n2)n[nH]1 [Tozasertib] (partner 0.1 µM) ... 0.182
Cc1cn(-c2cc(NC(=O)c3ccc(C)c(Nc4nccc(-c5cccnc5)n4)c3)cc(C(F)(F)F)c2)cn1 [Nilotinib] + CCNC(=O)c1noc(-c2cc(C(C)C)c(O)cc2O)c1-c1ccc(CN2CCOCC2)cc1 [Luminespib] (partner 0.01 µM) ... 0.607
Cc1cn(-c2cc(NC(=O)c3ccc(C)c(Nc4nccc(-c5cccnc5)n4)c3)cc(C(F)(F)F)c2)cn1 [Nilotinib] + CC(C)C[C@H](NC(=O)[C@H](Cc1ccccc1)NC(=O)c1cnccn1)B(O)O [Bortezomib] (partner 0.002 µM) ... 0.295

Per the records, this compound ( Cc1cn(-c2cc(NC(=O)c3ccc(C)c(Nc4nccc(-c5cccnc5)n4)c3)cc(C(F)(F)F)c2)cn1 [Nilotinib] + C[C@@H](Oc1cc(-c2cnn(C3CCNCC3)c2)cnc1N)c1c(Cl)ccc(F)c1Cl [Crizotinib] (partner 1 µM) ) has relative viability equal to 0.311

Per the records, this compound ( Cc1cn(-c2cc(NC(=O)c3ccc(C)c(Nc4nccc(-c5cccnc5)n4)c3)cc(C(F)(F)F)c2)cn1 [Nilotinib] + Cc1nc(Nc2ncc(C(=O)Nc3c(C)cccc3Cl)s2)cc(N2CCN(CCO)CC2)n1 [Dasatinib] (partner 0.075 µM) ) has relative viability equal to 0.654

Per the records, this compound ( Cc1cn(-c2cc(NC(=O)c3ccc(C)c(Nc4nccc(-c5cccnc5)n4)c3)cc(C(F)(F)F)c2)cn1 [Nilotinib] + N=C(N)NC(=N)NCCc1ccccc1 [Phenformin] (partner 250 µM) ) has relative viability equal to 0.426

Per the records, this compound ( Cc1cn(-c2cc(NC(=O)c3ccc(C)c(Nc4nccc(-c5cccnc5)n4)c3)cc(C(F)(F)F)c2)cn1 [Nilotinib] + Cc1nc(NC(=O)N2CCC[C@H]2C(N)=O)sc1-c1ccnc(C(C)(C)C(F)(F)F)c1 [Alpelisib] (partner 2 µM) ) has relative viability equal to 0.22

---

Some compounds, each annotated with its measured relative viability.
# Tested on: NCI-H1755
# Method: relative viability (nuclei count vs DMSO), 5 days (fraction); higher = more cells survive
# Measurement Setup: first compound 20 µM
Just the number, please, no unit after it.

The cases that follow already have their relative viability on record.
Cc1csc(=NC2CCCCC2)n1/N=C/c1ccc(O)c(O)c1O [MIM1] + COc1cc2c(Oc3ccc(NC(=O)C4(C(=O)Nc5ccc(F)cc5)CC4)cc3F)ccnc2cc1OCCCN1CCOCC1 [Foretinib] (partner 0.25 µM) ... 0.563
Cc1csc(=NC2CCCCC2)n1/N=C/c1ccc(O)c(O)c1O [MIM1] + Cc1nc(NC(=O)N2CCC[C@H]2C(N)=O)sc1-c1ccnc(C(C)(C)C(F)(F)F)c1 [Alpelisib] (partner 2 µM) ... 0.207
Cc1csc(=NC2CCCCC2)n1/N=C/c1ccc(O)c(O)c1O [MIM1] + COc1cccc2cc(-c3nc([C@H]4CC[C@H](C(=O)O)CC4)n4ncnc(N)c34)[nH]c12 [OSI-027] (partner 0.5 µM) ... 0.223

Consider the record given below.
Per the records, this compound ( Cc1csc(=NC2CCCCC2)n1/N=C/c1ccc(O)c(O)c1O [MIM1] + CC1(C)CCC(c2ccc(Cl)cc2)=C(CN2CCN(c3ccc(C(=O)NS(=O)(=O)c4ccc(N[C@H](CCN5CCOCC5)CSc5ccccc5)c(S(=O)(=O)C(F)(F)F)c4)cc3)CC2)C1 [Navitoclax] (partner 0.5 µM) ) has relative viability equal to 0.557
